biological target: CCK receptor (pancreas) (Rattus norvegicus, UniProt P30551); construct: The whole pancreas was dissected free of fat tissue and was homogenized; from tissue; host or cells: rat pancreas membranes (Sprague-Dawley); test: CCK Receptor Binding (Pancreas): inhibition of ^125 I-CCK-33 binding; set-up: species or system Male Sprague-Dawley rats; settings: IC50 ^125 I-CCK Pancreas, rat pancreas membranes, ^125 I-CCK-33, 37° C., 30 minutes
Sequence (P30551 whole entry): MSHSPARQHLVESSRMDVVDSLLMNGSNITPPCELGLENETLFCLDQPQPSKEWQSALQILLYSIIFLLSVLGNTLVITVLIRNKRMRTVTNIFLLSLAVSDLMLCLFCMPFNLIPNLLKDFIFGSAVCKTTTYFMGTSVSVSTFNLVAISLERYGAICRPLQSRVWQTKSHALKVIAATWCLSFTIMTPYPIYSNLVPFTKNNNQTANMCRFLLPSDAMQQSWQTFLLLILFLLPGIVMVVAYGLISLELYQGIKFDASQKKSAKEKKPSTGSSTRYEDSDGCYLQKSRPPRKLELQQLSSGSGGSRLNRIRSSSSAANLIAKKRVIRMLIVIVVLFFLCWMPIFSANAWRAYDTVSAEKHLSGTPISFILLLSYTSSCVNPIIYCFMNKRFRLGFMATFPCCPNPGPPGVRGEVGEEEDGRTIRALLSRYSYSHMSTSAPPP
Lab note: anything with IC50 below 3000 nM is marked T; values at 3000 nM or higher are marked F.

Prompt line: Does the reported IC50 of CN1C(=O)C(C(=O)c2ccsc2)N=C(c2ccccc2)c2ccccc21 (racemic) stay below 3000 nM?
Response line: F

Prompt line: Would you kindly verify if IC50 of CCOC(=O)C(C)N1C(=O)C(NC(=O)OCc2ccccc2)N=C(c2ccccc2)c2ccccc21 (stereo not shown) [Example 242] is strictly less than 3000 nM?
Response line: T

Prompt line: Would you kindly verify if IC50 of CC(C(=O)O)N1C(=O)C(NC(=O)OCc2ccccc2)N=C(c2ccccc2)c2ccccc21 (stereo not shown) is strictly less than 3000 nM?
Response line: T

Prompt line: Problem: For the molecule CCCCCN1C(=O)[C@@H](Cc2c[nH]c3ccccc23)N=C(c2ccccc2F)c2ccccc21 , is IC50 under 3000 nM?
Response line: F

Prompt line: Just wondering, is IC50 of CN1C(=O)[C@@H](Cc2c[nH]c3ccccc23)N=C(c2ccccc2)c2cc(Cl)ccc21 below 3000 nM?
Response line: T

Prompt line: Please let me know if O=C(Cc1ccc(Cl)cc1)NC1N=C(c2ccccc2)c2ccccc2NC1=O (stereo not shown) shows IC50 below 3000 nM.
Response line: T

Prompt line: Please let me know if CN1C(=O)C(O)(C(=O)c2ccsc2)N=C(c2ccccc2)c2ccccc21 (racemic) [Example 53a] shows IC50 below 3000 nM.
Response line: F

Prompt line: Problem: For the molecule CN1C(=O)C(C(=O)Nc2ccc(Cl)cc2)N=C(c2ccccc2)c2ccccc21 (stereo not shown) , is IC50 under 3000 nM?
Response line: T

Prompt line: Input CN1C(=O)C(NC(=O)Nc2ccccc2Cl)N=C(c2ccccc2)c2ccccc21 (stereo not shown) ; condition: IC50 strictly below 3000 nM. Does it hold?
Response line: T

Prompt line: I wonder whether CCN(CC)C(=O)C(C)N1C(=O)C(NC(=O)OCc2ccccc2)N=C(c2ccccc2)c2ccccc21 (stereo not shown) has IC50 below 3000 nM. Can you tell?
Response line: T

Prompt line: Determine whether this molecule shows IC50 lower than 3000 nM (ties excluded): Cc1cccc2c1N(C)C(=O)C(NC(=O)c1cc3ccccc3[nH]1)N=C2c1ccccc1 (stereo not shown)
Response line: T

Prompt line: Confirm or reject: IC50 of Fc1ccccc1C1=N[C@H](Cc2c[nH]c3ccccc23)CNc2ccccc21 lies strictly below 3000 nM
Response line: F

Prompt line: Determine whether this molecule shows IC50 lower than 3000 nM (ties excluded): NCC1N=C(c2ccccc2F)c2ccccc2NC1=O (racemic)
Response line: F

Prompt line: I'd appreciate it if you could check whether CN(C)CCN1C(=O)[C@@H](Cc2c[nH]c3ccccc23)N=C(c2ccccc2F)c2ccccc21 has IC50 smaller than 3000 nM.
Response line: F

Prompt line: Determine whether this molecule shows IC50 lower than 3000 nM (ties excluded): Cc1cccc2c1NC(=O)C(NC(=O)c1cc3ccccc3[nH]1)N=C2c1ccccc1 (stereo not shown)
Response line: T

Prompt line: Criterion: IC50 strictly below 3000 nM. Is it met by COc1cccc(NC(=O)NC2N=C(c3ccccc3)c3ccccc3N(CC(=O)N3CCCC3)C2=O)c1 (stereo not shown) ?
Response line: T

Prompt line: Record O=C1Nc2ccc(Cl)cc2C(c2ccccc2)=N[C@@H]1Cc1c[nH]c2ccccc12 : is its IC50 strictly below 3000 nM?
Response line: F

Prompt line: Please let me know if CC(C)C[C@H]1N=C(c2ccccc2)c2cc(Cl)ccc2NC1=O shows IC50 below 3000 nM.
Response line: F
